Assay: Pharmacokinetics of plasma chiauranib after single and multiple oral doses in patients (LC-MS/MS)
Type: in vivo, human
Details: human, plasma, oral, 20 mg, Day1, single dose 20 mg (n = 6)
measuredMetric: Tmax (h)
Answers are plain numbers, in h.

Query :: Need Tmax of COc1ccc2c(Oc3ccc4c(C(=O)Nc5ccccc5N)cccc4c3)ccnc2c1 [chiauranib] , thanks.
Result :: 2

* * *

Assay: Pharmacokinetics of plasma chiauranib after single and multiple oral doses in patients (LC-MS/MS)
Type: in vivo, human
Details: human, plasma, oral, 35 mg, Day1, single dose 35 mg (n = 3)
measuredMetric: Cmax
Could you give the number and then its unit, please?

Query :: Which Cmax value is on record for COc1ccc2c(Oc3ccc4c(C(=O)Nc5ccccc5N)cccc4c3)ccnc2c1 [chiauranib] ?
Result :: 608 ng/mL

These data points were gathered from paper PMC6332596.
